Would you mind telling me the reported inhibition at 10 µM of each entry?
Molecular target: Muscarinic M4 (Homo sapiens)
Sequence (P08173 1-479): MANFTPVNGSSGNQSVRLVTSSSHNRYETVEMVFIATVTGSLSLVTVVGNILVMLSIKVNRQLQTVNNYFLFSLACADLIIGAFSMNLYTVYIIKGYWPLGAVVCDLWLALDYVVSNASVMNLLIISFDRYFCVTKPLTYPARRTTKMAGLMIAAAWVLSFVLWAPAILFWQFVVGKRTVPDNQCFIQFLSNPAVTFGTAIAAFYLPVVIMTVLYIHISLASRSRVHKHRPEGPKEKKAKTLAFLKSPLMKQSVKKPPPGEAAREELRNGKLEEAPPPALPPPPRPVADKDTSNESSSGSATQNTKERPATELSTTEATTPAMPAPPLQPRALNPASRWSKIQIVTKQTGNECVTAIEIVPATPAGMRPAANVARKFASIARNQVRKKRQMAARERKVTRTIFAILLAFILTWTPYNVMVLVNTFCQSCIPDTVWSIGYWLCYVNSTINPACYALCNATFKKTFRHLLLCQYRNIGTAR
Assay: PDSP binding screen
Conditions: read-out: Ki (nM) or % inhibition at 10 µM: M4

Prompt: Given the entry CCN(CCCNC(=O)c1ccsc1)CCNC(=O)c1cc(Br)cc(OC)c1OC [21i] , report its measured inhibition at 10 µM.
Completion: < 50%

Prompt: Given the entry CCCN(CCCNC(=O)c1ccc(-c2cccs2)cc1)CCNC(=O)c1cc(Br)cc(OC)c1OC [20a] , report its measured inhibition at 10 µM.
Completion: < 50%

Prompt: Given the entry CCN(CCCNC(=O)c1cn2ccccc2n1)CCNC(=O)c1cc(Br)cc(OC)c1OC [21e] , report its measured inhibition at 10 µM.
Completion: < 50%

Prompt: Given the entry CCN(CCCNC(=O)c1cc2ccccc2n1C)CCNC(=O)c1cc(Br)cc(OC)c1OC [21j] , report its measured inhibition at 10 µM.
Completion: < 50%

Prompt: Given the entry CCN(CCCNC(=O)c1ccc2ccccc2c1)CCNC(=O)c1cc(Br)cc(OC)c1OC [21a] , report its measured inhibition at 10 µM.
Completion: < 50%

Prompt: Given the entry CCN(CCCNC(=O)c1cc2ccccc2[nH]1)CCNC(=O)c1cc(Br)cc(OC)c1OC [21d] , report its measured inhibition at 10 µM.
Completion: < 50%

###

Would you mind telling me the reported Ki of each entry?

Prompt: Under UniProtKB Q9H3N8: Ki value of CCCN(CCCNC(=O)c1ccc(-c2cccs2)cc1)CCNC(=O)c1cc(Br)cc(OC)c1OC [20a] ?
Completion: 3.46 µM

Prompt: Under UniProtKB Q9H3N8: Ki value of CCN(CCCNC(=O)c1ccc(-c2cccs2)cc1)CCNC(=O)c1cc(Br)cc(OC)c1OC ?
Completion: 6.42 µM

###

target: human D3 receptors (Homo sapiens); experiment: β-arrestin recruitment assay (antagonist mode, competition with dopamine); assay type: cell-based; set-up: expressed in transfected cells; conditions: percentage of the maximum inhibition of dopamine at EC80 concentration; read-out: Imax (% Control)
Sequence (P35462 whole entry): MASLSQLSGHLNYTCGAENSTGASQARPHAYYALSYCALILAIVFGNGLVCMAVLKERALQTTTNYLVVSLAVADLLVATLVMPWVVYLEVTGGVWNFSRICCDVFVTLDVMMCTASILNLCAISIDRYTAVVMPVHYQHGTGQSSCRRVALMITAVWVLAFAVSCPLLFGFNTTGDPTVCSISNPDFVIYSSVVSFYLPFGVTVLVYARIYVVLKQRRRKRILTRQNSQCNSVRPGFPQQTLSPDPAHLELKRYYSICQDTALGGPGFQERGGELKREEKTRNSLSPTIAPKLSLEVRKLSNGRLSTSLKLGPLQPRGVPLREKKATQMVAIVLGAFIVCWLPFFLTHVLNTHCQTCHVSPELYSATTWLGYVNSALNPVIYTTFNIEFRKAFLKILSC
Think of 90% as a floor: if Emax stands on it or above, it is class 1; beneath it, class 0.

Prompt: Identify whether the reported Emax of the following compound is 90% or greater: CCN(CCCCN(C)C)CCNC(=O)c1cc(Br)cc(OC)c1OC
Completion: class 1

Prompt: Identify whether the reported Emax of the following compound is 90% or greater: CCN(CCCNC(=O)c1ccncc1)CCNC(=O)c1cc(Br)cc(OC)c1OC [21f]
Completion: class 0

Prompt: Identify whether the reported Emax of the following compound is 90% or greater: CCN(CCCNC(=O)c1ccc(-c2cccs2)cc1)CCNC(=O)c1cc(Br)cc(OC)c1OC
Completion: class 0

Prompt: Identify whether the reported Emax of the following compound is 90% or greater: CCN(CCCCN(C)C)CCNC(=O)c1cc(CCCF)cc(OC)c1OC
Completion: class 1

Prompt: Identify whether the reported Emax of the following compound is 90% or greater: CCN(CCCNC(=O)c1ccc2ccccc2c1)CCNC(=O)c1cc(Br)cc(OC)c1OC [21a]
Completion: class 0

Prompt: Identify whether the reported Emax of the following compound is 90% or greater: CCN(CCCCNC(=O)c1ccc(-c2cccs2)cc1)CCNC(=O)c1cc(Br)cc(OC)c1OC
Completion: class 0

Prompt: Identify whether the reported Emax of the following compound is 90% or greater: CCN(CCCNC(=O)c1ccc(-c2ccsc2)cc1)CCNC(=O)c1cc(Br)cc(OC)c1OC [21g]
Completion: class 0

Prompt: Identify whether the reported Emax of the following compound is 90% or greater: CCN(CCCNC(=O)c1ccc(-c2ccncc2)cc1)CCNC(=O)c1cc(Br)cc(OC)c1OC [21c]
Completion: class 0

Prompt: Identify whether the reported Emax of the following compound is 90% or greater: C=CCN(CCCNC(=O)c1ccc(-c2cccs2)cc1)CCNC(=O)c1cc(Br)cc(OC)c1OC [20b]
Completion: class 1
